Please find below log10(IC50) measurements for GST-Xa-hAAK1 (Homo sapiens (Human), UniProt Q2M2I8), combined from several publications.
observable: log10(IC50) (log10 of the value in nM)

| compound | log10(IC50) |
| --- | --- |
| CC(C)C[C@](C)(N)COc1ncc(-c2ccnc3ccncc23)cc1C#N | 1.28 |
| CC(C)C[C@](N)(CF)COc1cnc(-c2ccnc(C(F)F)c2)cc1C(F)F | 1.26 |
| CC(C)C[C@](C)(N)COc1ncc(-c2ccnc3cc(C#N)ccc23)cc1F | 1.49 |
| COC(=O)Nc1cc(-c2ccc(OCC(C)(N)CC(C)C)c(Cl)c2)ccn1 (stereo not shown) | -0.17 |
| CC(C)C[C@](C)(N)COc1ccc2c(c1)COc1c-2ccnc1Cl | 0.34 |
| Cc1cc(-c2ccc(OC[C@@H](N)CC(C)C)c(-c3ccno3)c2)ccn1 | 0.70 |
| CC(C)C[C@](C)(N)COc1ccc(-c2ccnc(NC(=O)OC(C)C)n2)cc1C(F)(F)F | 0.59 |
| CC(C)C[C@](C)(N)COc1ccc(-c2ccnc3cc(F)ccc23)nc1C(F)F | 0.54 |
| Cc1nccc(-c2ccc(OC[C@@](C)(N)CC(C)C)c(Cl)c2)n1 | 0.18 |
| CC(=O)Nc1cc(-c2ccc(OC[C@@H](N)CC(C)C)c(OC(F)(F)F)c2)ccn1 | -0.33 |
| Cc1cc(-c2cc(C(F)F)c(OC[C@](N)(CF)CC(C)C)cn2)ccn1 | 0.34 |
| Cc1cc2c(-c3ccc(OC[C@@](C)(N)CC(C)C)c(C(F)(F)F)c3)ccnc2[nH]1 | -0.10 |
| Cc1nc(-c2ccnc3ccccc23)ccc1OC[C@@](C)(N)CC(C)C | 0.89 |
| Cc1nc(-c2ccnc(N)c2F)ccc1OC[C@@](C)(N)CC(C)C | 0.28 |
| CC(C)C[C@](C)(N)COc1ncc(-c2ccnc3ccc(F)cc23)cc1Cl | 0.00 |
| COC(=O)Nc1nccc(-c2ccc(OC[C@@](C)(N)CC(C)C)c(C#N)c2)c1F | 0.83 |
| COC(=O)Nc1nccc(-c2ccc(OC[C@@](C)(N)CC(C)C)c(C#N)c2)n1 | 0.00 |
| Cc1cc(-c2ccnc(C(F)(F)F)c2)ncc1OC[C@@](C)(N)CC(C)C | 1.85 |
| CC(C)C[C@](C)(N)COc1ccc(-c2ccnc(N)c2)cc1C(F)(F)F | -0.52 |
| Cc1cc(-c2cc(C(F)F)c(OC[C@@](C)(N)CC(C)C)cn2)ncn1 | 0.99 |
| COC(=O)Nc1cc(-c2cc(Cl)c(OC[C@@](C)(N)CC(C)C)cn2)ccn1 | 0.15 |
| Cc1cc(-c2ccc(OC[C@@](C)(N)CC(C)C)c(S(C)(=O)=O)c2)ccn1 | 3.15 |
| Cc1cc(-c2cc(C)c(OC[C@@](C)(N)CC(C)C)c(F)n2)ccn1 | 1.70 |
| CC(=O)Nc1cc2c(cn1)OCc1cc(OC[C@@H](N)CC(C)C)ccc1-2 | 0.32 |
| Cc1cc(-c2cc(C(F)(F)F)c(OC[C@@](C)(N)CC(C)C)cn2)ccn1 | 0.11 |
| CC(C)C[C@](C)(N)COc1ncc(-c2ccnc3cc(F)cc(F)c23)cc1C(F)(F)F | 0.00 |
| COC(=O)Nc1nccc(-c2cnc(OC[C@@](C)(N)CC(C)C)c(Cl)c2)n1 | 0.41 |
| Cc1nccc2c3ccc(OC[C@@](C)(N)CC(C)C)cc3c(=O)n(C)c12 | 1.54 |
| Cc1cc(-c2ccc(OC[C@@](C)(N)CC(C)C)c(C#N)c2)c(F)cn1 | -0.14 |
| CC(C)n1nnc(-c2cccc(NC(=O)c3cnc4ccc(N[C@H]5CC[C@H](N)CC5)nn34)c2)n1 | 1.08 |
| CC(C)n1nnc(-c2cccc(NC(=O)c3cnc4c(Nc5ccccc5)cc(N[C@H]5CC[C@H](N)CC5)nn34)c2)n1 | 0.71 |
| COC(=O)Nc1cc(-c2ccc(OC[C@@](C)(N)CC(C)C)c(CO)c2)ccn1 | 0.65 |
| CC(C)c1nc(-c2cccc(NC(=O)c3cnc4ccc(N[C@H]5CC[C@H](N)CC5)nn34)c2)no1 | 1.43 |
| COC(=O)Nc1cc(-c2ccc(OC[C@](C)(N)CC(C)C)c(C)n2)ccn1 | 1.62 |
